# system.under.test: recombinant Motavizumab human IgE (rMota-hIgE) (human) (UniProt P01854)
# Sequence (P01854 other isoform, or with tags, fused parts or gaps limits assumed, form in doubt): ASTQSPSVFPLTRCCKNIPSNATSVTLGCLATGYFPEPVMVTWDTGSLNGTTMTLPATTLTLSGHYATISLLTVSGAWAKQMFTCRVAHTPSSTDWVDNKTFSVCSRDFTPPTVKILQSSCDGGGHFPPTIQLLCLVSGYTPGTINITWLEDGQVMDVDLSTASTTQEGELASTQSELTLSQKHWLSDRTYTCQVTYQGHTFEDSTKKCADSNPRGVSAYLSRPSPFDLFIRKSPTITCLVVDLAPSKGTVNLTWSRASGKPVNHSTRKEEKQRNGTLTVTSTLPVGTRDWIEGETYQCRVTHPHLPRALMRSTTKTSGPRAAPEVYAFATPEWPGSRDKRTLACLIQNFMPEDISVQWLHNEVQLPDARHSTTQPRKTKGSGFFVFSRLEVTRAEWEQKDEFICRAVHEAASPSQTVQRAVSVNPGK
# experiment.description: hIgE binding ELISA
Listing of entries alongside the reported Ratio OD450 pH 7.4/pH 6.
# print the numeric value only

CL-2C mAb 6 (antibody, V domains shown) VH: QVQLVQSGAEVMKPGSSVKVSCKASGYTFSWYWLEWVRQAPGHGLEWMGEIDPGTFTTHYNEKFKARVTFTADTSTSTAYMELSSLRSEDTAVYYCARFSHFSGSHYDYFDYWGQGTLVTVSS VL: EIVMTQSPATLSVSPGERATLSCRASQSIGTNIHWYQQKPGQAPRLLIYHASESISGIPARFSGSGSGTEFTLTISSLQSEDFAVYYCHQSDSWPTTFGGGTKVEIK = 10.2
CL-2C mAb 28 (antibody, V domains shown) VH: QVQLVQSGAEVMKPGSSVKVSCKASGYTFSWYHLEWVRQAPGHGLEWMGEIDPGTFTTNYNEKFKARVTFTADTSTSTAYMELSSLRSEDTAVYYCARFSHFSGSHYDYFDYWGQGTLVTVSS VL: EIVMTQSPATLSVSPGERATLSCRASQSIGTNIHWYQQKPGQAPRLLIYHASESISGIPARFSGSGSGTEFTLTISSLQSEDFAVYYCQQSWSWPTTFGGGTKVEIK = 5.54
CL-2C mAb 36 (antibody, V domains shown) VH: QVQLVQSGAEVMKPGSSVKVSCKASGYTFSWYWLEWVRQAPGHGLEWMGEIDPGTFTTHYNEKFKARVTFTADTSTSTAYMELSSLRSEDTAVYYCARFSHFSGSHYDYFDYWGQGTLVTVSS VL: EIVMTQSPATLSVSPGERATLSCRASQSIGTNIHWYQQKPGQAPRLLIYYASESISGIPARFSGSGSGTEFTLTISSLQSEDFAVYYCQQSWSWPTTFGGGTKVEIK = 10.7
CL-2C mAb 40 (antibody, V domains shown) VH: QVQLVQSGAEVMKPGSSVKVSCKASGYTFSWYWLEWVRQAPGHGLEWMGEIDPGTFTTNYNEKFKARVTFTADTSTSTAYMELSSLRSEDTAVYYCARFSHFSGSNYDYFDYWGQGTLVTVSS VL: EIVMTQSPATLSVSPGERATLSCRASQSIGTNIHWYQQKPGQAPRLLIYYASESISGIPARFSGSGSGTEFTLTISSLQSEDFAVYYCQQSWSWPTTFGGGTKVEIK = 1

Summary for this binder, CL-2C mAb 39 (antibody, V domains shown) VH: QVQLVQSGAEVMKPGSSVKVSCKASGYTFSWYHLEWVRQAPGHGLEWMGEIDPGTFTTNYNEKFKARVTFTADTSTSTAYMELSSLRSEDTAVYYCARFSHFSGHNYDYFDYWGQGTLVTVSS VL: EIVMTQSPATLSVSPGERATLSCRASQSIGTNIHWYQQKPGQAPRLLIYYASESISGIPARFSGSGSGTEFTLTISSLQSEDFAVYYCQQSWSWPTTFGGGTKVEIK : Ratio OD450 pH 7.4/pH 6 is 7.59

Source listed as patent US20220177604A1.
